List of fluorescence lifetime values.
- test-name: solvent given as SMILES
- condition-notes: in CCO
Answer format: numeric, ns implied, no suffix.

CN(C)c1ccc(/C=C/c2cc[n+](Cc3cc(C[n+]4ccc(/C=C/c5ccc(N(C)C)cc5)cc4)cc(C[n+]4ccc(/C=C/c5ccc(N(C)C)cc5)cc4)c3)cc2)cc1 :: 0.06
CCC1=C(C)C2=C(C)c3c(I)c(I)cn3[B-](F)(F)[N+]2=C1C :: 0.125
O=C1c2cccc3cc4ccccc4c(c23)C(=O)N1Cc1ccccn1 :: 15.2
COc1ccc2c(-c3nc(-c4ccccc4)no3)cc(=O)oc2c1 :: 6.4
c1ccc(-c2cc(-c3ccc4ccc5cccc6ccc3c4c56)ccn2)nc1 :: 3.5
CCCCCCC(CCCCCC)n1c(=O)c2c3ccc4cccc5c6cccc7ccc(c2c1=O)c(c76)c3c45 :: 6.5

In: For CC(=O)N(Cc1ccccn1)c1c2ccccc2c2c3c(cccc13)C(=O)N(Cc1ccccn1)C2=O , what is its reported fluorescence lifetime?
Out: 1.66

In: Would you mind telling me what fluorescence lifetime value was observed for N#Cc1ccc(N)cc1 ?
Out: 0.68

---

Catalogue of molecules with associated fluorescence lifetime
- test-name: solvent given as SMILES
- condition-notes: in O=P(c1ccccc1)(c1ccccc1)c1ccccc1Oc1ccccc1P(=O)(c1ccccc1)c1ccccc1
State the answer as a number, implicitly in ns.

c1ccc2c(c1)Oc1ccccc1N2c1ccc(-c2nnc(-c3ccc(N4c5ccccc5Oc5ccccc54)cc3)o2)cc1 :: 11.2

Let us examine a further case.
In: Value lookup for fluorescence lifetime; key = Cc1ccccc1-c1nc(-c2ccccc2C)nc(-c2ccc(N3c4ccccc4C4(c5ccccc5-c5ccccc54)c4ccccc43)cc2C)n1
Out: 24

---

- test-name: solvent given as SMILES
- condition-notes: in ClCCl
reported-endpoint: fluorescence lifetime (ns)
Write it as a number; the unit ns goes unstated.

A selection of reference data follows.
c1ccc2c(c1)CCc1c-2cnc2c1-c1ccccc1CC2 :: 3.67
CCCN1/C(=C\c2c(-c3ccc(N(C)C)cc3)c(=O)c2=O)C=Cc2ccccc21 :: 0.09

In: Reported fluorescence lifetime for c1ccc(-n2c(-c3ccc(N(c4ccc(-c5ccc(N(c6ccc(-c7nc8c9ccccc9c9ccccc9c8n7-c7ccccc7)cc6)c6ccc(-c7nc8c9ccccc9c9ccccc9c8n7-c7ccccc7)cc6)cc5)cc4)c4ccc(-c5nc6c7ccccc7c7ccccc7c6n5-c5ccccc5)cc4)cc3)nc3c4ccccc4c4ccccc4c32)cc1 : what is it?
Out: 1.68

---

- test-name: solvent given as SMILES
- condition-notes: in OCCO
Param threshold (2 ns) applies to fluorescence lifetime; output condition met when value >= threshold, condition not met when value < threshold.

Some solved cases for reference:
Cc1nn(-c2ccccc2)c(C2=NN(c3ccc(Br)cc3)[C@@H](c3ccccc3)[C@@H]2c2ccccc2)c1C#N :: condition met
O=C(O)c1c2ccccc2nc2ccccc12 :: condition not met
O=c1oc2ccccc2cc1-c1nc2ccccc2o1 :: condition met
CN(C)c1c2ccccc2cc2ccccc12 :: condition met
COC(=O)c1c2ccccc2nc2ccccc12 :: condition not met
COC(=O)C(Cc1ccc2oc(-c3ccc(-n4c5ccccc5c5ccccc54)cc3)nc2c1)NC(=O)OC(C)(C)C (stereo not drawn) :: condition met
CCOC(=O)C1CC(c2c(C#N)c(C)nn2-c2ccccc2)=CN1c1ccc(Br)cc1 (stereo not drawn) :: condition met

Next molecule, please.
In: Entry CCN(CC)c1ccc2nc3c4ccccc4c(=O)cc-3oc2c1 : is its fluorescence lifetime no less than 2 ns?
Out: condition met

---

- test-name: solvent given as SMILES
- condition-notes: in CO
Below, each entry is listed alongside its reported log10 fluorescence lifetime.
Form field - Quantity: fluorescence lifetime; Unit: ns; Scale: log10

The examples below pair each entry with its known result.
COC(=O)C(NC(=O)OC(C)(C)C)c1ccc2oc(-c3ccc(O)cc3O)nc2c1 (centres undefined) :: 0.12
N#Cc1ccc(/C=C/c2c3ccccc3cc3ccccc23)cc1 :: -0.22
C#CCNC1=C2C=CC=[N+]2[B-](F)(F)n2cccc21 :: 0.51

In: # query: log10 fluorescence lifetime of entry CCCCCCCCN1c2ccc(C#Cc3ccc(OC)cc3)cc2Sc2cc(C=O)ccc21
Out: 0.71

In: I have this molecule here, COc1cc(-c2cc(-c3ccc(C)cc3)nc3c(C#N)c(N4CCCC4)nc(N)c23)cc(OC)c1OC , and I need its recorded log10 fluorescence lifetime.
Out: 0.93

In: Item Nc1ccc2cn[nH]c2c1 has what recorded log10 fluorescence lifetime?
Out: 0.49

In: What value of log10 fluorescence lifetime has been recorded for this entry: O=C1c2ccccc2-c2cccc(O)c21
Out: 0.56

In: I am curious: what log10 fluorescence lifetime value has been reported for Cc1cc2ccc(-c3cccc4cccc(-c5ccc6cc(C)c(=O)oc6c5)c34)cc2oc1=O ?
Out: 0.73

In: Which value of log10 fluorescence lifetime has been reported for Cc1ccc(-c2cc(-c3ccccc3Cl)c3c(N)nc(N4CCCC4)c(C#N)c3n2)cc1 in the records?
Out: 0.99

---

- test-name: solvent given as SMILES
- condition-notes: in CCO
As shown below, each of these compounds has a reported fluorescence lifetime value.
Express your answer in ns, writing the number without its unit.

CC1(C)C(/C=C/C2=C(c3ccc(C(=O)O)cc3)C(=C/C=C3/N(CCCCS(=O)(=O)[O-])c4ccccc4C3(C)C)/CC2)=[N+](CCCCS(=O)(=O)[O-])c2ccccc21 :: 0.87

In: I'd like to know its fluorescence lifetime. The compound in question is Cc1cc2cc3ccccc3cc2cn1
Out: 18.7

In: Please report the recorded fluorescence lifetime for CC1(C)C(/C=C/C=C/C=C/C=C2/N(CCCCS(=O)(=O)[O-])c3ccc4ccccc4c3C2(C)C)=[N+](CCCCS(=O)(=O)[O-])c2ccc3ccccc3c21 .
Out: 0.62

In: Which value of fluorescence lifetime has been reported for O=C([O-])c1ccccc1C1=c2cc3c4c(c2Oc2c1cc1c5c2CCCN5CCC1)CCC[N+]=4CCC3 in the records?
Out: 4.74

In: I am curious: what fluorescence lifetime value has been reported for Cc1cc2cc3cc(C)c(C)cc3cc2cn1 ?
Out: 18

In: # query: fluorescence lifetime of entry COc1ccc(C#Cc2ccc(C#Cc3ccc(P(=O)(c4ccccc4)c4ccccc4)cc3)cc2)cc1
Out: 1.03

---

- test-name: solvent given as SMILES
- condition-notes: in CC#N
Measured fluorescence lifetime by item
# do not omit the unit; it follows the number

These recorded examples may help you get a feel for the data.
CCC(=O)c1ccc2cc(N(C)C)ccc2c1 :: 3.96 ns
Nc1ccc2c3cccc4cccc(c5cccc1c52)c43 :: 5.5 ns
CSC1=C2C=C(c3cc4n(c3)[B-](F)(F)[N+]3=CC=CC3=C4c3c(C)cc(C)cc3C)C(C)=[N+]2[B-](F)(F)n2c(C)ccc21 :: 0.17 ns

In: Which measured fluorescence lifetime value corresponds to Nc1ccc(/C=C/c2ccc3ccccc3c2)cc1 ?
Out: 0.23 ns

In: Please look up its fluorescence lifetime: O=c1[nH]cc(F)c(=O)[nH]1
Out: 0.0004 ns

In: Could you tell me which fluorescence lifetime is on file for Cc1c(OCC(=O)O)cc2c3c([nH]c2c1C)C(=O)CCC3 ?
Out: 0.97 ns

In: Give its fluorescence lifetime value. Item: CC(C)CCCN1c2ccccc2CCc2ccccc21
Out: 0.89 ns

In: Entry C(=C\c1ccc2ccccc2c1)/c1ccc(Nc2ccccc2)cc1 has what fluorescence lifetime?
Out: 0.43 ns

In: Need fluorescence lifetime, item CN(C)c1ccc(C#Cc2ccc(C#Cc3ccc(C#Cc4ccccc4C#N)cc3C#N)cc2C#N)cc1
Out: 1.66 ns

In: Name the reported fluorescence lifetime value associated with the compound CNc1ccc2c(c1)-c1ccccc1C2=O
Out: 4.3 ns

In: Requested field: fluorescence lifetime. Item: CCOC(=O)CN1C(=O)C2=C(c3ccc(C#N)cc3)N(CC(=O)OCC)C(=O)C2=C1c1ccc(C#N)cc1
Out: 6.67 ns

In: Reported fluorescence lifetime, compound Cc1ccc(-[c+]2c3ccccc3sc3ccccc32)cc1 : ____
Out: 1 ns

---

- test-name: solvent given as SMILES
- condition-notes: in O
Recorded log10 of fluorescence lifetime for the following molecules
Please interpret these as log10 of fluorescence lifetime where fluorescence lifetime is in ns.

The following molecules have reported results that may help.
Cc1cccc2nc3c(=O)[nH]c(=O)[nH]c3nc12 :: 0.86
CCN(CC)c1ccc2c(c1)oc(=O)c1c(-c3ccccc3C(=O)O)c3ccc(=[N+](CC)CC)cc-3oc12 :: -0.51
Nc1cccc[nH+]1 :: 1.05

In: Would you mind telling me what log10 of fluorescence lifetime value was observed for CCN(CC)c1ccc2cc3ccc(=[N+](CC)CC)cc-3oc2c1 ?
Out: 0.61

In: Give the measured log10 of fluorescence lifetime of CN(C)c1ccc2c(c1)C(C)(C)C(=O)C=C2 .
Out: 0.56

In: Give its log10 of fluorescence lifetime value. Item: CCN(CC)c1ccc2c(-c3ccc(S(=O)(=O)[O-])cc3S(=O)(=O)[O-])c3ccc(=[N+](CC)CC)cc-3oc2c1
Out: 0.17

In: log10 of fluorescence lifetime for N#Cc1ccc(N)cc1 ?
Out: -1.17

In: # get_value(readout='log10 of fluorescence lifetime', item= Cn1c(/C=C/c2ccc(/C=C/c3nc4ccccc4[nH]3)cc2)[n+](C)c2ccccc21 )
Out: -0.38

In: Which log10 of fluorescence lifetime is listed for Cc1nn(-c2ccccc2)c(C2=NN(c3ccc(Br)cc3)[C@@H](c3ccccc3)[C@@H]2c2ccccc2)c1C#N ?
Out: 0.41

In: Quick check: log10 of fluorescence lifetime of CC1=CC2=Nc3nc(C)[n+](C)cc3CN2C=C1 ?
Out: 0.72

In: Look up log10 of fluorescence lifetime: O=S(=O)([O-])c1ccc([O-])c2ccccc12
Out: 1.18
